Entries and their measured IC50 follow.
Molecular target: mTOR/GbL/Raptor (mTORC1) (Homo sapiens)
Assay: mTOR/GbL/Raptor (mTORC1) ELISA assay
Conditions: phosphorylation of 4E-BP1; 0.2 nM mTORC1, 10 μM ATP; read-out: IC50 in this assay (mTORC1 ELISA)

Reference set (5 entries):
molecule="COC1Cc2nc(CN(C)C)nc(N3CCOc4ccc(-c5cnc6nc(C)[nH]c6c5)cc4C3)c2CC1(C)C (stereo not shown) [Example 355]" recorded_result="50 to 250 nM"
molecule="COc1ccc2c(N3CCOc4ccc(-c5ccc6[nH]cnc6c5)cc4C3)nc(CN(C)C)nc2c1 [Example 658]" recorded_result="≥ 2000 nM"
molecule="CN1CCC(CNS(=O)(=O)c2cc(-c3ccc4c(c3)CN(c3ncnc5c3CC(C)(C)CC5)CCO4)cnc2N)CC1 [Example 381]" recorded_result="250 to 1000 nM"
molecule="CC1(C)CCc2ncnc(N3CCOc4ccc(-c5cnc(N)c(S(=O)(=O)NCC(N)=O)c5)cc4C3)c2C1 [Example 636]" recorded_result="10 to 50 nM"
molecule="CNCc1nc2ncc(-c3ccc4c(c3)CN(c3ncnc5c3CC(C)(C)CC5)CCO4)cc2[nH]1 [Example 358]" recorded_result="10 to 50 nM"

Request: # input molecule: Cc1nc(CN(C)C)nc(N2CCOc3ccc(-c4cnc5sc(N)nc5c4)cc3C2)c1Cl [Example 678] ; wanted: its IC50
Response: 250 to 1000 nM

Request: And the next one, c1ccc2sc(-c3ccc4c(c3)CN(c3ccnc5ccccc35)CCO4)cc2c1 [Example 206] ?
Response: 1000 to 2000 nM
